For Rho-associated protein kinase 1 (Homo sapiens), measured log10 of IC50 is reported for the entries below.
endpoint.label: log10 of IC50 (log10 of the value in nM)

molecule=c1ccc(Nc2nc(NC3Cc4ccccc4C3)nc(N3CCNCC3)n2)cc1 measured_value=3.87
molecule=c1ccc2c(c1)CC(Nc1nc(Nc3ccncc3)nc(N3CCCNCC3)n1)C2 measured_value=1.04
molecule=c1ccc2c(c1)CC(Nc1nc(Nc3ccncc3)nc(N3CCNCC3)n1)C2 measured_value=0.78
molecule="c1ccc2c(c1)CCC2Nc1nc(Nc2ccncc2)nc(N2CCNCC2)n1 (centres undefined)" measured_value=2.27
molecule=c1ccc2c(c1)CC(Nc1nc(Nc3ccncc3)nc(N3CCCCC3)n1)C2 measured_value=3.92
molecule=c1ccc(Nc2nc(NC3Cc4ccccc4C3)nc(N3CCNCC3)n2)nc1 measured_value=3.00
molecule=CNCCN(C)c1nc(Nc2ccncc2)nc(NC2Cc3ccccc3C2)n1 measured_value=1.91
molecule="c1ccc2c(c1)CCC(Nc1nc(Nc3ccncc3)nc(N3CCNCC3)n1)C2 (centres undefined)" measured_value=1.36
molecule=c1cncc(Nc2nc(NC3Cc4ccccc4C3)nc(N3CCNCC3)n2)c1 measured_value=3.92
